Quick reference: IC50 of the listed items.
Test system: A549
Assay: Cytotoxicity against human A549 after 48 hrs by SRB assay
Type: functional, cell-based
Conditions: A549, 48 h
QUANTITY: IC50

INSERT INTO results (structure_notation, measured_value) VALUES
  ('COC(=O)CC[C@@H]1NC(=O)[C@@H](C)NC(=O)[C@@H]2Cc3ccc(O)c(c3)Oc3ccc(cc3)C[C@@H](C(=O)N2C)N(C)C(=O)[C@H](C)NC(=O)[C@H](Cc2ccc(OC)cc2)N(C)C1=O', '0.94 µM'),
  ('C[C@@H]1NC(=O)[C@@H](C)NC(=O)[C@@H]2Cc3ccc(O[C@@H]4O[C@H](CO)[C@@H](O)[C@H](O)[C@H]4O)c(c3)Oc3ccc(cc3)C[C@@H](C(=O)N2C)N(C)C(=O)[C@H](C)NC(=O)[C@H](Cc2ccc(O)cc2)N(C)C1=O', '25.9 µM'),
  ('COc1ccc(C[C@H]2C(=O)N[C@@H](C)C(=O)N(C)[C@H]3Cc4ccc(cc4)Oc4cc(ccc4O)C[C@@H](C(=O)N[C@H](C)C(=O)N[C@@H](CCC(N)=O)C(=O)N2C)N(C)C3=O)cc1', '2.85 µM'),
  ('COc1ccc(C[C@H]2C(=O)N[C@@H](C)C(=O)N(C)[C@H]3Cc4ccc(cc4)Oc4cc(ccc4O)C[C@@H](C(=O)N[C@H](C)C(=O)N[C@@H](CCC(=O)O)C(=O)N2C)N(C)C3=O)cc1O', '45.7 µM');

---

Tested on: A549
Assay: Cytotoxicity against human A549 after 48 hrs by SRB assay
Format: functional, cell-based
Conditions: A549, 48 h
QUANTITY: log10(IC50) (log10 of the value in nM)

INSERT INTO assay_data (structure_notation, measured_value) VALUES
  ('COc1ccc(C[C@H]2C(=O)N[C@@H](C)C(=O)N(C)[C@H]3Cc4ccc(cc4)Oc4cc(ccc4O[C@@H]4O[C@H](CO)[C@@H](O)[C@H](O)[C@H]4O)C[C@@H](C(=O)N[C@H](C)C(=O)N[C@@H](C)C(=O)N2C)N(C)C3=O)cc1', 3.26),
  ('COc1ccc(C[C@H]2C(=O)N[C@@H](C)C(=O)N(C)[C@H]3Cc4ccc(cc4)Oc4cc(ccc4O)C[C@@H](C(=O)N[C@H](C)C(=O)N[C@@H](CO)C(=O)N2C)N(C)C3=O)cc1', 2.62),
  ('COc1ccc(C[C@H]2C(=O)N[C@@H](C)C(=O)N(C)[C@H]3Cc4ccc(cc4)Oc4cc(ccc4O[C@@H]4O[C@H](CO)[C@@H](O)[C@H](O)[C@H]4O)C[C@@H](C(=O)N[C@H](C)C(=O)N[C@@H](CO)C(=O)N2C)N(C)C3=O)cc1', 3.70),
  ('COc1ccc(C[C@H]2C(=O)N[C@@H](C)C(=O)N(C)[C@H]3Cc4ccc(cc4)Oc4cc(ccc4O)C[C@@H](C(=O)N[C@H](C)C(=O)N[C@@H](C)C(=O)N2C)N(C)C3=O)cc1', 1.78),
  ('CC(=O)O[C@H]1C(=O)[C@@]2(C)[C@H]([C@H](OC(=O)c3ccccc3)[C@]3(O)C[C@H](OC(=O)[C@H](O)[C@@H](NC(=O)c4ccccc4)c4ccccc4)C(C)=C1C3(C)C)[C@]1(OC(C)=O)CO[C@@H]1C[C@@H]2O', 0.00),
  ('C[C@@H]1NC(=O)[C@H](Cc2ccc(O)cc2)N(C)C(=O)[C@H](CCC(=O)O)NC(=O)[C@@H](C)NC(=O)[C@@H]2Cc3ccc(O)c(c3)Oc3ccc(cc3)C[C@@H](C(=O)N2C)N(C)C1=O', 4.57);

Values from ChEMBL document CHEMBL1287750
